Values from PubChem BioAssay

ASSAY SUMMARY: RAM signaling pathway blockade in yeast – S. cerevisiae, Pdr1DBD-CYC8 efflux-inhibited sensitized strain, primary screen (AID 1298);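 note: 0% = DMSO untreated cells without growth and 100% = 10 µM 1-NA-PP1 full growth; higher means more yeast growth rescued from 5-FOA killing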
DETAILS: S. cerevisiae cbk1-as DSE1-URA3 strain, 5-FOA growth OD615, 2 d; at 50 µM; hits give high values
Kindly state RAM network inhibition for each of the entries shown.
One number for each entry, in %.

Worked set:
> print(dat)
                                   compound  reported.result
1  C=CCn1c(=N)n(CC(O)COc2ccccc2OC)c2ccccc21 (configuration not stated)             1.07
2  O=C(c1cccc(S(=O)(=O)N2CCCC2)c1)c1cccc(S(=O)(=O)N2CCCC2)c1             5.82
3  CCOc1ccccc1NC(=O)CCS(=O)(=O)c1cccc2nonc12             5.48

Batch request: RAM network inhibition per item, same order as input.
1. O=C(CN1CCN(C2CCCCC2)CC1)c1ccc2cc[nH]c2c1
2. CSc1nc(C)cc(SCCO)n1
3. O=C1c2ccccc2C(Nc2ccc(S(=O)(=O)N3CCCCC3)cc2)N1c1ccccn1 (configuration not stated)
4. CCOC(=O)c1sc2nc3n(c(=O)c2c1C)CCCCC3

1. -1.26
2. 0.46
3. 3.68
4. 4.46

Batch request: RAM network inhibition per item, same order as input.
1. Cn1cnc2c1c(=O)n(Cc1ccccc1)c(=O)n2C
2. CC(=O)c1cc(F)c(N2CCN(CCC#N)CC2)cc1C

1: 0.42; 2: 0.47

Batch request: RAM network inhibition per item, same order as input.
1. Brc1ccc(-c2nnc3sc(CNCc4ccc5c(c4)OCO5)cn23)cc1
2. CCN1CCN(S(=O)(=O)c2ccc3[nH]c(=O)oc3c2)CC1
3. COc1ccccc1CNS(=O)(=O)c1ccc2c(c1)oc(=O)n2C
4. CCOc1ccccc1NC(=O)CN(c1cc(C)cc(C)c1)S(=O)(=O)c1c(C)noc1C
5. O=C(c1cc(-c2cccc(O)c2)on1)N1CCCCC1
6. CC(=O)C1=C(C)N=c2s/c(=C/c3ccc4c(c3)OCO4)c(=O)n2C1c1ccc(N(C)C)cc1 (configuration not stated)

1: 1.64; 2: 4.74; 3: 0.32; 4: 1.81; 5: 4.74; 6: 4.19

Batch request: RAM network inhibition per item, same order as input.
1. Cc1ccc(-n2c(SCC(=O)Nc3cc(C)on3)nc3c(c2=O)SC(C)C3)cc1 (configuration not stated)
2. O=C(COc1ccccc1F)c1ccc(O)cc1O
3. CC(C)COC(=O)C1C2C=CC3(CN(C4CCCC4)C(=O)C13)O2 (configuration not stated)
4. CCn1cc(C(=O)OCC(=O)Nc2c(C)n(C)n(-c3ccccc3)c2=O)c(=O)c2ccc(C)nc21

1: 2.13; 2: -1.69; 3: 2.04; 4: 0.21

Batch request: RAM network inhibition per item, same order as input.
1. O=C(CCn1c(=O)oc2ccccc21)N1CCN(c2ccc(F)cc2)CC1
2. Cn1c(NC(=O)c2cccc(C(F)(F)F)c2)cc(=O)n(C)c1=O
3. COC(=O)c1nc2n(n1)C(c1cccc(Cl)c1)C1=C(CCCC1=O)N2 (configuration not stated)

1. 3.71
2. 1.89
3. 1.89
